Values compiled from patent CN114671953A.

Measured 响应 accompanies every entry in the list below.
Molecular target: T1, 人Nectin-4 (human, UniProt Q96NY8 32-349)
T1 construct: construct not described; also called human Nectin-4; PVRL4
T1 sequence (looked up): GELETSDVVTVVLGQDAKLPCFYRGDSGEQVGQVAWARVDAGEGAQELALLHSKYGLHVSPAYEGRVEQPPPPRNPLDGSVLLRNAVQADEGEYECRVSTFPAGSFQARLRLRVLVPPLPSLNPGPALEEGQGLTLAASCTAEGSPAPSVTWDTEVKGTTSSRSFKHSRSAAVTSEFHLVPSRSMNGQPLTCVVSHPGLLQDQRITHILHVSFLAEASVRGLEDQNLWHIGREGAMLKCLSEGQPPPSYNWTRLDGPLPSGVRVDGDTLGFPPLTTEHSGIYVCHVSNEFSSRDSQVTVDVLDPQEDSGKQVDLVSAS
Test: BLI, VHH-Fc on anti-hIgG Fc probe, human Nectin-4 as analyte
Set-up: unit not given here
Respond using a number only.

CMB7-20 (Fc fusion, Tested as VHH fused to human Fc; also called VHH-Fc; not shown: human Fc fused to the VHH) QVQLVESGGGLVQPGGSLRLSCAASGSIFSMNVMGWYRQAPGKQRELVATITSGGSTNYADSVKGRFTISRDNANNTVYLQMNSLKPEDTAVYYCTGDQLGPLGTFSPIVYWGQGTQVTVSS | 0.783

Query :: Data request, read-out 响应, for CMB7-18 (Fc fusion, Tested as VHH fused to human Fc; also called VHH-Fc; not shown: human Fc fused to the VHH) QVQLVESGGGLVQAGGSLRLSCAASGSIFSINAMGWHRQGPGDQRELVAAITSGGSTKYVDSVKGRFTISRDNAKNTVYLQMNSLKPEDTGVYYCAAMGGSYEYDYWGQGTQVTVSS
Result :: 0.729
